# measurement target: guinea pig ileum, contraction in response to histamine (Cavia porcellus, UniProt P31389)
# Sequence (P31389 whole entry): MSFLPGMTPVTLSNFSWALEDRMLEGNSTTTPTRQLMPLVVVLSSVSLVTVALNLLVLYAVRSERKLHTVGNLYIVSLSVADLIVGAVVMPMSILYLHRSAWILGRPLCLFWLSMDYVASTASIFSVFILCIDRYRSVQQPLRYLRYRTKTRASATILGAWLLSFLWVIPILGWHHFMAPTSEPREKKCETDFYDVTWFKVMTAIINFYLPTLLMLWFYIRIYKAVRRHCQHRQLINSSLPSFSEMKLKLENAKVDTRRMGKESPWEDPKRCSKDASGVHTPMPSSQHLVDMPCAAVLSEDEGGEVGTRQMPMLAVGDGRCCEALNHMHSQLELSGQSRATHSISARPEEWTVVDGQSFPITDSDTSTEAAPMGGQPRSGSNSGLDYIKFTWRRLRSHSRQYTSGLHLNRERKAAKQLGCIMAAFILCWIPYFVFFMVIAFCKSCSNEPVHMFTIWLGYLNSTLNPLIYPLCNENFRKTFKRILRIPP
# assay procedure: Antihistaminic action, in vitro test on isolated ileum (contraction in response to histamine)
# assay conditions: 10^-8 to 10^-4 M histamine dose-response curve, 30 min after test compound; 29° C
Recorded Anti-histaminic action, pD'2 for the following molecules

structure notation: COc1ccc2c(c1)cc(-c1nnn(Cc3cccc(OCc4ccc5ccccc5n4)c3)n1)c(=O)n2C
Anti-histaminic action, pD'2: 5.52
//
structure notation: O=c1[nH]c2ccccc2cc1-c1nnn(Cc2cccc(OCc3ccc4ccccc4n3)c2)n1
Anti-histaminic action, pD'2: 5.24
//
structure notation: COc1ccc2c(c1)cc(-c1nnn(Cc3cccc(OCc4ccc5ccccc5n4)c3)n1)c(=O)n2CCN(C)C
Anti-histaminic action, pD'2: 5.58
//
structure notation: COc1ccc2[nH]c(=O)c(-c3nnn(Cc4cccc(OCc5ccc6ccccc6n5)c4)n3)cc2c1
Anti-histaminic action, pD'2: 5.53

---

Recorded Kd for the following compounds
# measurement target: LTD4 Receptor (Cavia porcellus, UniProt Q2NNR5)
# Sequence (Q2NNR5 1-340): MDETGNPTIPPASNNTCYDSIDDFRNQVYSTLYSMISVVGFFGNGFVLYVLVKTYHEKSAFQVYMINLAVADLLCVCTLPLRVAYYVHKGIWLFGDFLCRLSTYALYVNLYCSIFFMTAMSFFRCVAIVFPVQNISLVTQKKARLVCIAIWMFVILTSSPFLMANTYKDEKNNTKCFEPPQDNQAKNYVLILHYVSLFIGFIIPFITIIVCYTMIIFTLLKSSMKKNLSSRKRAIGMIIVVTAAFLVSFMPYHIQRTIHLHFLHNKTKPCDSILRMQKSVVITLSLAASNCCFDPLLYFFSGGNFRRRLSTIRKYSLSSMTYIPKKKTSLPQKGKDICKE
measurement label: Kd (nM)

structure notation: O=c1[nH]c2ccc(O)cc2cc1-c1nnn(Cc2cccc(OCc3ccc4ccccc4n3)c2)n1
numeric value: 21
//
structure notation: CC(=O)Oc1ccc2[nH]c(=O)c(-c3nnn(Cc4cccc(OCc5ccc6ccccc6n5)c4)n3)cc2c1
numeric value: 38.2
//
structure notation: NCC(=O)Oc1ccc2[nH]c(=O)c(-c3nnn(Cc4cccc(OCc5ccc6ccccc6n5)c4)n3)cc2c1
numeric value: 22.1

---

Recorded Kb for the following compounds
# measurement target: guinea pig ileum, contraction in response to histamine (Cavia porcellus)
# assay procedure: Antihistaminic action, in vitro test on isolated ileum (contraction in response to histamine)
# assay conditions: 10^-8 to 10^-4 M histamine dose-response curve, 30 min after test compound; 29° C; read-out: Anti-histaminic action, pA2 (converted)
Structures can show the parent of a compound that is named as a salt.
measurement label: Kb (nM)

compound: COc1ccc2c(c1)cc(-c1nnn(Cc3cccc(OCc4ccc5ccccc5n4)c3)n1)c(=O)n2CCCCN1CCN(Cc2ccc3ccccc3n2)CC1 [Example 47, dimalate]
units label: nM
numeric value: 20
--
compound: CN(C)CCn1c(=O)c(-c2nnn(Cc3cccc(OCc4ccc5ccccc5n4)c3)n2)cc2cc(O)ccc21 [Example 39]
units label: nM
numeric value: 30.2
--
compound: CN(C)CCn1c(=O)c(-c2nnnn2Cc2cccc(OCc3ccc4ccccc4n3)c2)cc2cc(O)ccc21 [Example 40]
units label: nM
numeric value: 251
--
compound: COc1ccc2[nH]c(=O)c(-c3nnnn3Cc3cccc(OCc4ccc5ccccc5n4)c3)cc2c1 [Example 2]
units label: nM
numeric value: 4170
--
compound: CCOCCn1c(COc2ccc(Cn3nnc(-c4cc5cc(OC)ccc5[nH]c4=O)n3)cc2)nc2ccccc21 [Example 6]
units label: nM
numeric value: 40.7
--
compound: CN1CCN(CCCOc2ccc3c(c2)cc(-c2nnn(Cc4cccc(OCc5ccc6ccccc6n5)c4)n2)c(=O)n3C)CC1 [Example 52, trihydrochloride]
units label: nM
numeric value: 912
--
compound: COc1ccc2c(c1)cc(-c1nnn(Cc3cccc(OCc4ccc5ccccc5n4)c3)n1)c(=O)n2CCCN1CCN(Cc2ccc3ccccc3n2)CC1 [Example 45, dihydrochloride]
units label: nM
numeric value: 21.9
--
compound: COc1ccc2c(c1)cc(-c1nnn(Cc3cccc(OCc4ccc5ccccc5n4)c3)n1)c(=O)n2CCCN1CCN(Cc2ccccn2)CC1 [Example 48, dihydrochloride]
units label: nM
numeric value: 115
--
compound: CN(C)CCn1c(=O)c(-c2nnn(Cc3cccc(C=Cc4ccc5ccccc5n4)c3)n2)cc2cc(O)ccc21 [Example 43]
units label: nM
numeric value: 174
--
compound: CN(C)CCCn1c(=O)c(-c2nnn(Cc3cccc(OCc4ccc5ccccc5n4)c3)n2)cc2cc(O)ccc21 [Example 42]
units label: nM
numeric value: 55

---

Form: system (H1 Receptor (Cavia porcellus)), quantity (Kd), values below.
measurement label: Kd

structure notation: CCOCCn1c(COc2ccc(Cn3nnc(-c4cc5cc(OC)ccc5[nH]c4=O)n3)cc2)nc2ccccc21
measurement target: H1 Receptor (Cavia porcellus)
measurement label: Kd
result: 3.29 µM
--
structure notation: Cn1c(COc2cccc(Cn3nnnc3-c3cc4ccccc4[nH]c3=O)c2)nc2ccccc21
measurement target: H1 Receptor (Cavia porcellus)
measurement label: Kd
result: 13.7 µM
--
structure notation: CC(=O)Oc1ccc2[nH]c(=O)c(-c3nnn(Cc4cccc(OCc5ccc6ccccc6n5)c4)n3)cc2c1
measurement target: H1 Receptor (Cavia porcellus)
measurement label: Kd
result: 480 µM
--
structure notation: O=c1[nH]c2ccccc2cc1-c1nnn(Cc2cccc(OCc3ccc4ccccc4n3)c2)n1
measurement target: H1 Receptor (Cavia porcellus)
measurement label: Kd
result: 89.5 µM
--
structure notation: COc1ccc2[nH]c(=O)c(-c3nnnn3Cc3ccc(OCc4ccc5ccccc5n4)cc3)cc2c1
measurement target: H1 Receptor (Cavia porcellus)
measurement label: Kd
result: 13.9 µM
--
structure notation: CC(C)(C)c1ccc2[nH]c(=O)c(-c3nnnn3Cc3cccc(OCc4ccc5ccccc5n4)c3)cc2c1
measurement target: H1 Receptor (Cavia porcellus)
measurement label: Kd
result: 22.8 µM

Hey, just so you know, these numbers are from patent US6117886A.
